# Tested on: HCV 1b genotype
# assay: HCV Replicon assay (HCV-neo replicon cells), 1b genotype
# Assay type: cell-based
# recorded-conditions: Hepatitis C virus; HCV 1b genotype replicon; value given as range class; read-out: 1b EC50 (in μM or range)
# Method: An HCV Replicon assay was utilized in the present disclosure, and was prepared, conducted and validated as described in commonly owned PCT/US2006/022197 and in O'Boyle et al., Antimicrob. Agents Chemother., 49(4):1346-1353 (April 2005). Assay methods incorporating luciferase reporters have also been used as described (Apath.com). HCV-neo replicon cells and replicon cells containing mutations in the NS5A region were used to test the currently described family of compounds. […]
Form field: EC50 (one value per entry).

structure	system	EC50
COC(=O)N[C@@H](C(=O)N1CCC[C@H]1c1ncc(-c2ccc(-c3ccc(-c4cnc([C@@H]5CCCN5C(=O)[C@H](NC(=O)OC)C(C)C)[nH]4)s3)s2)[nH]1)C(C)C	HCV 1b genotype	0.01 to 10 µM
COC(=O)N[C@@H](C(=O)N1CCC[C@H]1c1nc(CCc2ccc(CCc3cnc([C@@H]4CCCN4C(=O)[C@H](NC(=O)OC)c4ccccc4)[nH]3)cc2)c[nH]1)c1ccccc1	HCV 1b genotype	< 0.001 µM
COC(=O)N[C@H](C(=O)N1CCC[C@H]1c1ncc(-c2ccc(-c3ccc(-c4cnc([C@@H]5CCCN5C(=O)[C@@H](NC(=O)OC)C5CC5)[nH]4)s3)s2)[nH]1)C1CC1	HCV 1b genotype	< 0.001 µM
COC(=O)N[C@@H](C(=O)N1CCC[C@H]1c1nc(-c2ncc(-c3ccc(-c4cnc([C@@H]5CCCN5C(=O)[C@H](NC(=O)OC)c5ccccc5)[nH]4)cc3)o2)c[nH]1)c1ccccc1	HCV 1b genotype	0.001 to 0.01 µM
COC(=O)N[C@@H](C(=O)N1CCC[C@H]1c1ncc(C#Cc2ccc(-c3cnc([C@@H]4CCCN4C(=O)[C@H](NC(=O)OC)c4ccccc4)[nH]3)cc2)[nH]1)c1ccccc1	HCV 1b genotype	< 0.001 µM
CN(C)[C@@H](C(=O)N1CCC[C@H]1c1ncc(-c2cnc(-c3ncc(-c4cnc([C@@H]5CCCN5C(=O)[C@@H](c5ccccc5)N(C)C)[nH]4)s3)s2)[nH]1)c1ccccc1	HCV 1b genotype	< 0.001 µM
COC(=O)N[C@H](C(=O)N1CCC[C@H]1c1nc(C#Cc2ccc(C#Cc3c[nH]c([C@@H]4CCCN4C(=O)[C@@H](NC(=O)OC)[C@@H](C)OC)n3)cc2)c[nH]1)[C@@H](C)OC	HCV 1b genotype	< 0.001 µM
COC(=O)N[C@@H](C(=O)N1CCC[C@H]1c1nc(/C=C/c2ccc(/C=C/c3cnc([C@@H]4CCCN4C(=O)[C@H](NC(=O)OC)c4ccccc4)[nH]3)cc2)c[nH]1)c1ccccc1	HCV 1b genotype	< 0.001 µM
COC(=O)N[C@@H](C(=O)N1CCC[C@H]1c1ncc(-c2ncc(-c3cnc(-c4cnc([C@@H]5CCCN5C(=O)[C@H](NC(=O)OC)c5ccccc5)[nH]4)s3)s2)[nH]1)c1ccccc1	HCV 1b genotype	< 0.001 µM
COC(=O)N[C@H](C(=O)N1CCC[C@H]1c1ncc(C#Cc2ccc(-c3ccc(-c4cnc([C@@H]5CCCN5C(=O)[C@@H](NC(=O)OC)C(C)C)[nH]4)cc3)cc2)[nH]1)C(C)C	HCV 1b genotype	< 0.001 µM
COC(=O)N[C@@H](C)C(=O)N1CCC[C@H]1c1ncc(C#CC#Cc2cnc([C@@H]3CCCN3C(=O)[C@H](C)NC(=O)OC)[nH]2)[nH]1	HCV 1b genotype	0.01 to 10 µM
COCC[C@H](NC(=O)OC)C(=O)N1CCC[C@H]1c1ncc(-c2ncc(-c3cnc(-c4cnc([C@@H]5CCCN5C(=O)[C@H](CCOC)NC(=O)OC)[nH]4)s3)s2)[nH]1	HCV 1b genotype	0.01 to 10 µM
COC(=O)N[C@H](C(=O)N1CCC[C@H]1c1ncc(-c2ncc(-c3cnc(-c4cnc([C@@H]5CCCN5C(=O)[C@@H](NC(=O)OC)[C@@H](C)OC)[nH]4)s3)s2)[nH]1)[C@@H](C)OC	HCV 1b genotype	0.01 to 10 µM
COC(=O)N[C@@H](C(=O)N1CCC[C@H]1c1ncc(-c2cnc(-c3ncc(-c4cnc([C@@H]5CCCN5C(=O)[C@H](NC(=O)OC)c5ccccc5)[nH]4)s3)s2)[nH]1)c1ccccc1	HCV 1b genotype	< 0.001 µM
COC(=O)N[C@H](C(=O)N1CCC[C@H]1c1nc(CCc2ccc(CCc3cnc([C@@H]4CCCN4C(=O)[C@@H](NC(=O)OC)[C@@H](C)OC)[nH]3)cc2)c[nH]1)[C@@H](C)OC	HCV 1b genotype	0.01 to 10 µM
COC(=O)N[C@@H](C)C(=O)N1CCC[C@H]1c1nc(C#Cc2ccc(C#Cc3c[nH]c([C@@H]4CCCN4C(=O)[C@H](C)NC(=O)OC)n3)cc2)c[nH]1	HCV 1b genotype	0.001 to 0.01 µM
COC(=O)N[C@H](C(=O)N1CCC[C@H]1c1ncc(-c2cnc(-c3ncc(-c4cnc([C@@H]5CCCN5C(=O)[C@@H](NC(=O)OC)C(C)C)[nH]4)s3)s2)[nH]1)C(C)C	HCV 1b genotype	< 0.001 µM
COCC[C@H](NC(=O)OC)C(=O)N1CCC[C@H]1c1ncc(-c2ccc(-c3ccc(-c4cnc([C@@H]5CCCN5C(=O)[C@H](CCOC)NC(=O)OC)[nH]4)s3)s2)[nH]1	HCV 1b genotype	< 0.001 µM
COC(=O)N[C@H](C(=O)N1CCC[C@H]1c1nc(CCc2ccc(CCc3cnc([C@@H]4CCCN4C(=O)[C@@H](NC(=O)OC)C(C)C)[nH]3)cc2)c[nH]1)C(C)C	HCV 1b genotype	0.001 to 0.01 µM
COC(=O)N[C@@H](C(=O)N1CCC[C@H]1c1ncc(-c2ccc(-c3ccc(-c4cnc([C@@H]5CCCN5C(=O)[C@H](NC(=O)OC)c5ccccc5)[nH]4)s3)s2)[nH]1)c1ccccc1	HCV 1b genotype	< 0.001 µM

----------
# System: HCV 1b genotype
# assay: HCV Replicon assay (HCV-neo replicon cells), 1b genotype
# Assay type: cell-based
# recorded-conditions: Hepatitis C virus; HCV 1b genotype replicon; value given as range class; read-out: 1b EC50 (in μM or range)

compound	EC50
CN(C)[C@@H](C(=O)N1CCC[C@H]1c1nc(-c2ncc(-c3ccc(-c4cnc([C@@H]5CCCN5C(=O)[C@@H](c5ccccc5)N(C)C)[nH]4)cc3)o2)c[nH]1)c1ccccc1 [Example 26]	0.001 to 0.01 µM
CN(C)[C@@H](C(=O)N1CCC[C@H]1c1ncc(-c2ccc(-c3ccc(-c4cnc([C@@H]5CCCN5C(=O)[C@@H](c5ccccc5)N(C)C)[nH]4)s3)s2)[nH]1)c1ccccc1 [Example 5]	< 0.001 µM
COC(=O)N[C@@H](C(=O)N1CCC[C@H]1c1ncc(CCc2ccc(-c3cnc([C@@H]4CCCN4C(=O)[C@H](NC(=O)OC)c4ccccc4)[nH]3)cc2)[nH]1)c1ccccc1 [Example M2]	< 0.001 µM
COC(=O)N[C@@H](C(=O)N[C@@H](C)c1ncc(-c2cccc(-c3cnc(-c4c[nH]c([C@@H]5CCCN5C(=O)[C@H](NC(=O)OC)c5ccccc5)n4)o3)c2)[nH]1)c1ccccc1 [Example 23]	0.001 to 0.01 µM
CN(C)[C@@H](C(=O)N1CCC[C@H]1c1ncc(-c2ccc(-c3cnc(-c4c[nH]c([C@@H]5CCCN5C(=O)OCc5ccccc5)n4)o3)cc2)[nH]1)c1ccccc1 [Example 28]	0.001 to 0.01 µM
COC(=O)N[C@@H](C(=O)N1CCC[C@H]1c1ncc(C#CC#Cc2cnc([C@@H]3CCCN3C(=O)[C@H](NC(=O)OC)c3ccccc3)[nH]2)[nH]1)c1ccccc1 [Example 29]	< 0.001 µM
COC(=O)N[C@H](C(=O)N1CCC[C@H]1c1nc(/C=C/c2ccc(/C=C/c3cnc([C@@H]4CCCN4C(=O)[C@@H](NC(=O)OC)C(C)C)[nH]3)cc2)c[nH]1)C(C)C [Example 38]	< 0.001 µM
COC(=O)N[C@H](C(=O)N1CCC[C@H]1c1ncc(-c2cnc(-c3ncc(-c4cnc([C@@H]5CCCN5C(=O)[C@@H](NC(=O)OC)[C@@H](C)OC)[nH]4)s3)s2)[nH]1)[C@@H](C)OC [Example 19]	0.001 to 0.01 µM
COC(=O)N[C@H](C(=O)N1CCC[C@H]1c1ncc(C#CC#Cc2cnc([C@@H]3CCCN3C(=O)[C@@H](NC(=O)OC)C(C)C)[nH]2)[nH]1)C(C)C [Example 31]	< 0.001 µM
COC(=O)N[C@@H](C(=O)N1CCC[C@H]1c1nc(-c2ncc(-c3cccc(-c4cnc([C@@H]5CCCN5C(=O)[C@H](NC(=O)OC)c5ccccc5)[nH]4)c3)o2)c[nH]1)c1ccccc1 [Example 21]	< 0.001 µM
